Where do the numbers come from? From PubChem BioAssay (NCATS).

Assay: Viability qHTS for spleen associated tyrosine kinase inhibitor (SYKi) naive MV4-11 cells (AID 1963823); note: nearly all actives have a fitted effect of over 40% in size
Conditions: MV4-11 AML viability, CellTiter-Glo luminescence, 72 h; series mostly up to 45 µM
Procedure: Department of Medicine, Hematology/Oncology University Hospital Frankfurt, Germany. Trials have shown promising clinical activity of the selective SYK inhibitor entospletinib in patients with high expressing HOXA9/MEIS1 acute leukemias. […] 7; Detection; Luminescence; ViewLux plate reader (PerkinElmer). […] 1. Quantitative high-throughput screening (qHTS) of small molecule compounds was conducted on naive SYKi MV4-11 cell line. […] 7. Luminescence was measured on a ViewLux plate reader (PerkinElmer).
Inconclusive results are not listed. Calls of active or inactive are those of the source. Calls come from the whole dose curve; as a rule, active = well fitted cell-killing curve with a large enough effect; inconclusive = small, poorly fitted or top-dose-only effect, or effect the other way; inactive = no such curve, though single readings can be large or run the other way.
// allowed return values: yes (1) (active), no (0) (inactive)

Just curious, what result did "CC(=O)OC[C@H]1O[C@@](COC(C)=O)(O[C@H]2O[C@H](COC(C)=O)[C@@H](OC(C)=O)[C@H](OC(C)=O)[C@H]2OC(C)=O)[C@@H](OC(C)=O)[C@@H]1OC(C)=O" get here? no (0)

Just curious, what result did "CC[C@@H]1C[C@]1(NC(=O)[C@@H]1C[C@@H]2CN1C(=O)[C@H](C(C)(C)C)NC(=O)OCC(C)(C)CCCCc1cccc3c1CN(C3)C(=O)O2)C(=O)NS(=O)(=O)C1CC1" get here? yes (1)

Just curious, what result did "Cc1ccc(C(=O)/C=C/c2ccccc2)s1" get here? yes (1)

Just curious, what result did CC(=O)N[C@H]1CCN(c2ccc(C3=NOC(CN[S+](=O)([O-])C(C)C)C3)cc2F)C1 (some centres not stated) get here? no (0)

Just curious, what result did "OCC1=C[C@@H](O)[C@@H]2C=CO[C@@H](O[C@@H]3O[C@H](CO)[C@@H](O)[C@H](O)[C@H]3O)[C@H]12" get here? no (0)

Just curious, what result did "Cc1cc(=O)oc2cc(O[C@@H]3SC[C@@H](O)[C@H](O)[C@H]3O)ccc12" get here? no (0)

Just curious, what result did "COc1ccc(C2(CNC(=O)c3ccc(NC(=O)c4ccco4)cc3)CCOCC2)cc1" get here? no (0)

---

Assay: Viability qHTS for spleen associated tyrosine kinase inhibitor (SYKi) drug resistant MV4-11 cells (AID 1963824); note: nearly all actives have a fitted effect of over 35% in size
Details: SYKi-resistant MV4-11 viability, CellTiter-Glo, 72 h; series mostly up to 45 µM
Records with an inconclusive call do not appear. Active and inactive are the calls of the source. The call rests on the fitted dose curve; in most records, active means well fitted cell-killing curve with a large enough effect; inconclusive means small, poorly fitted or top-dose-only effect, or effect the other way; inactive means no such curve, though single readings can be large or run the other way.
// allowed return values: y for active, n for inactive

A selection of reference data follows.
1. Nc1ncnc2c1ncn2[C@H]1CCCO1 | n
2. O=C(Nc1cccc(C(F)(F)F)c1)Nc1cc(S(=O)(=O)NC2CC2)ccc1-c1ccsc1 | y
3. CC1(C)C2CC[C@]3(C)C(C(=O)C=C4[C@H]5C[C@@](C)(C(=O)O)CC[C@]5(C)CC[C@]43C)[C@@]2(C)CC[C@@H]1O (some centres not stated) | n
4. CN(C)C(N)=NC(=N)N | n
5. CCC(C)N(C)C(=O)c1cc2ccccc2c(-c2ccccc2Cl)n1 (configuration not stated) | y
6. CSC(=O)OCC1=C[C@@H]2OC(=O)C3=CO[C@@H](O[C@@H]4O[C@H](CO)[C@@H](O)[C@H](O)[C@H]4O)[C@H]1[C@@H]32 | n
7. CC1(C)CC[C@]2(C(=O)O)CC[C@]3(C)C(=CCC4[C@@]5(C)CC[C@H](O[C@@H]6O[C@H](CO)[C@@H](O)[C@H](O)[C@H]6O[C@@H]6O[C@H](CO)[C@@H](O)[C@H](O)[C@H]6O)[C@@](C)(CO)C5CC[C@]43C)[C@@H]2C1 (some centres not stated) | n
8. O=C(Nc1cc(C(F)(F)F)ccc1N1CCCCC1)c1ccncc1 | y

Just curious, what result did "CC(C)(C)c1cc(C(C)(C)C)c(NC(=O)c2c[nH]c3ccccc3c2=O)cc1O" get here? y

Just curious, what result did "Cc1cn2c(n1)Cc1ccc(Cl)cc1C(c1ccc(N)cc1)=N2" get here? y

Just curious, what result did CCN(CC)CCOC(=O)C(Cc1cccc2ccccc12)CC1CCCO1 (configuration not stated) get here? n

Just curious, what result did "COc1ccc([C@@H]2CNC(=O)C2)cc1OC1CCCC1" get here? n
